Structures can show the parent of a compound that is named as a salt.
Notes on GI50 obtained with HUVEC cells.

>>> value_measured("C=CC(=O)N(C)c1cc(Nc2ncc(Cl)c(NCCCNC(=O)c3ccc(F)cc3)n2)ccc1F")
"> 40 µM"
>>> value_measured("C=CC(=O)N(C)c1cc(Nc2ncc(Cl)c(NCCCNC(=O)c3ccc(C(F)(F)F)cc3)n2)ccc1F")
"> 40 µM"
>>> value_measured("C=CC(=O)N(C)c1cc(Nc2ncc(Cl)c(NCCCNC(=O)c3ccc(C#N)cc3)n2)ccc1F")
"> 40 µM"

--- query ---
Requested read-out: GI50. Entry: C[C@@H]1CCN(C(=O)CC#N)C[C@@H]1N(C)c1ncnc2[nH]ccc12 [Xeljanz, tofacitinib citrate, reference compound]
> 40 µM
